biological target: melatonin receptors in chicken retinal membranes; assay: Binding to melatonin receptors in chicken retinal membranes; conditions: method of Dubocovich and Takahashi, read-out: Chicken retina Ki
pKi: −log10 of the molar value. Structures can show the parent of a compound that is named as a salt.
MEASURED ATTRIBUTE: pKi

COMPOUND | TESTED ON | pKi
CC(=O)NCCN1CCc2ccc3c(c21)CCCO3 [Example 2, hydrochloride] | melatonin receptors in chicken retinal membranes | 8.31

[a] O=C(NCCN1CCc2ccc3c(c21)CCO3)C1CC1
[b] CC(=O)NCCN1CCc2cc(Cl)c3c(c21)CCO3
[c] CC(=O)NCCN1CCc2ccc3c(c21)CCO3
(Q) Sort these compounds on pKi so the largest reading comes first. // respond by listing labels in the order requested
(A) c, a, b
(c: 9.38, a: 8.77, b: 8.49)
